ASSAYED_SYSTEM: Human TASK-1 channels (Homo sapiens (Human))
Sequence (O14649 whole entry): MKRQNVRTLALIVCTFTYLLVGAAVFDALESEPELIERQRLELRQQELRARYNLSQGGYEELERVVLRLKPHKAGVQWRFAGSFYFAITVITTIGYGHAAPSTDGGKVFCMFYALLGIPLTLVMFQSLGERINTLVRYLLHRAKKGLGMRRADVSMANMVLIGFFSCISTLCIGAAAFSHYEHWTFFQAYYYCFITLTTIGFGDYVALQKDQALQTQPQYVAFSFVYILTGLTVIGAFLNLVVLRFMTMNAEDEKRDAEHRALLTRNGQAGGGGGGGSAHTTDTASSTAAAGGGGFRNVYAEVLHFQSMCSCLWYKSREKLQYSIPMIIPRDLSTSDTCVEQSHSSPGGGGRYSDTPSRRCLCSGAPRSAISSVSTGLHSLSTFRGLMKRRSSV
PROCEDURE_DETAILS: Activity on the TASK-1 channel in Xenopus oocytes (two-microelectrode voltage clamp)
Assay type: cell-based
Task for the reader: assign each of the following compounds its reported inhibition at 5 µM.
Field: numeric (%). Do not append units.

Q) What measured inhibition at 5 µM is associated with CC(C)(C)OCC(=O)N1CCc2c(c(-c3cccc(C#N)c3)nn2Cc2ccc(F)cc2F)C1 on Human TASK-1 channels (Homo sapiens (Human))?
A) 75

Q) // map CC(=O)N1CCc2c(c(-c3cccc(C)n3)nn2Cc2ccc(F)cc2F)C1 to recorded inhibition at 5 µM (system: Human TASK-1 channels (Homo sapiens (Human)))
A) 73

Q) Lab note: need inhibition at 5 µM for COc1ccc(-c2nn(Cc3ccc(F)cc3F)c3c2CN(C(C)=O)CC3)nc1Cl on Human TASK-1 channels (Homo sapiens (Human)), anyone have it?
A) 75

Q) Recall the recorded inhibition at 5 µM for CC(=O)N1CCc2c(c(-c3cccc(C(F)(F)F)c3)nn2Cc2ccc(Cl)s2)C1 with Human TASK-1 channels (Homo sapiens (Human)) and state it.
A) 53

Q) Notebook entry, Human TASK-1 channels (Homo sapiens (Human)) assay: inhibition at 5 µM of CC(=O)N1CCc2c(c(-c3cccc(C)c3)nn2Cc2ccc(F)cc2F)C1 = ?
A) 89

Q) What is its inhibition at 5 µM for Human TASK-1 channels (Homo sapiens (Human))? Entry: CC(=O)N1CCc2c(c(-c3cccc(C(F)(F)F)c3)nn2Cc2nccs2)C1
A) 84

Q) Request - read-out inhibition at 5 µM | tested on Human TASK-1 channels (Homo sapiens (Human)) | compound CC(=O)N1CCc2c(c(-c3cccc(C#N)c3)nn2Cc2cc(F)ccc2F)C1
A) 86

Q) For the record CC(=O)N1CCc2c(c(-c3ccnc(Br)c3)nn2Cc2ccc(F)cc2F)C1 , what value of inhibition at 5 µM is listed for Human TASK-1 channels (Homo sapiens (Human))?
A) 78

Q) Entry CC(=O)N1CCc2c(c(-c3cccc(Cl)c3)nn2Cc2ccc(F)cc2C)C1 , system Human TASK-1 channels (Homo sapiens (Human)): what inhibition at 5 µM was measured?
A) 81

Q) So what inhibition at 5 µM did CC(=O)N1CCc2c(c(-c3cccc(C(F)(F)F)c3)nn2Cc2csc(C)n2)C1 get with Human TASK-1 channels (Homo sapiens (Human))?
A) 86

Q) I'm curious: which inhibition at 5 µM was measured for CCNC(=O)N1CCc2c(c(-c3cccc(C#N)c3)nn2Cc2ccc(F)cc2F)C1 [Example 11h] tested on Human TASK-1 channels (Homo sapiens (Human))?
A) 91

Q) Request body: readout inhibition at 5 µM, system Human TASK-1 channels (Homo sapiens (Human)), query CC(=O)N1CCc2c(c(-c3ncccc3C)nn2Cc2ccc(F)cc2F)C1 . Return the value.
A) 76

Q) Param readout= inhibition at 5 µM; system= Human TASK-1 channels (Homo sapiens (Human)); entry= CC(=O)N1CCc2c(c(-c3cccc(C)c3)nn2Cc2cnccc2Cl)C1 ; returns value.
A) 79

Q) Can you look up inhibition at 5 µM on Human TASK-1 channels (Homo sapiens (Human)) for CC(=O)N1CCc2c(c(-c3cccs3)nn2Cc2ccc(F)cc2F)C1 ?
A) 72

Q) # value lookup — system Human TASK-1 channels (Homo sapiens (Human)), readout inhibition at 5 µM, item CC(=O)N1CCc2c(c(-c3cccc(Cl)c3)nn2Cc2ccc(Cl)s2)C1
A) 76

Q) Short answer please: inhibition at 5 µM, Human TASK-1 channels (Homo sapiens (Human)), entry COc1cccc(-c2nn(Cc3ccc(F)cc3F)c3c2CN(C(C)=O)CC3)n1
A) 86

Q) Param readout = inhibition at 5 µM; param system = Human TASK-1 channels (Homo sapiens (Human)); param query = COc1ccnc(Cn2nc(-c3cccc(C(F)(F)F)c3)c3c2CCN(C(C)=O)C3)c1 ; response: value
A) 70

Q) Query inhibition at 5 µM on Human TASK-1 channels (Homo sapiens (Human)) for CC(=O)N1CCc2c(c(-c3cccc(C)c3)nn2Cc2ccc(Cl)nc2)C1
A) 88

Q) Param readout = inhibition at 5 µM; param system = Human TASK-1 channels (Homo sapiens (Human)); param query = CC(=O)N1CCc2c(c(-c3cccc(C(F)(F)F)n3)nn2C(C)c2ccc(F)cc2)C1 (centres unmarked) ; response: value
A) 89

Q) For the record CC(=O)N1CCc2c(c(-c3cc(C)ccn3)nn2Cc2ccc(F)cc2F)C1 , what value of inhibition at 5 µM is listed for Human TASK-1 channels (Homo sapiens (Human))?
A) 82

Q) Hello, I am looking for reported inhibition at 5 µM with Human TASK-1 channels (Homo sapiens (Human)) for CN(CCO)C(=O)N1CCc2c(c(-c3cccc(C#N)c3)nn2Cc2ccc(F)cc2F)C1 [Example 12e] . Could you help?
A) 65

Q) What value of inhibition at 5 µM on Human TASK-1 channels (Homo sapiens (Human)) does CC(=O)N1CCc2c(c(-c3cccc(Cl)c3)nn2Cc2ncccc2C)C1 have?
A) 62

Q) What reported inhibition at 5 µM corresponds to COc1ccnc(-c2nn(Cc3ccc(F)cc3F)c3c2CN(C(C)=O)CC3)c1 on Human TASK-1 channels (Homo sapiens (Human))?
A) 80
